Tested on: CEM cells HIV-1 protection, formazan growth assay
Test: NCI AIDS Antiviral Assay
Conditions: measured here: growth of uninfected CEM cells
Protocol: The ability of compounds to protect human CEM cells from HIV-1 infection is measured as a screen for new compounds capable of inhibiting the HIV virus. Five concentrations of drug were tested on uninfected and infected cells and cell growth was measured using a soluble formazan assay. […] Compounds that provided at least 50% protection were retested. Compounds that provided at least 50% protection on retest were listed as moderately active. […]
pIC50: −log10 of the molar value.
Measure Name: pIC50

CC(=O)NNc1nc(C)c(C(=O)/C=C/c2ccc(/C=C/C(=O)c3sc(NNC(C)=O)nc3C)cc2)s1; < 4.31

// recorded pIC50 for `Clc1ccc(/C=N/Nc2nnc3c(n2)[nH]c2ccccc23)cc1` : < 3.70

// recorded pIC50 for `CC(=O)Nc1ccc(Nc2cc(=O)n(C)c(=O)[nH]2)cc1` : < 3.70

// recorded pIC50 for CC12CCC(C(=O)n3c1nc1ccccc13)C(C)(C)O2 (stereo unspecified) : < 3.70

// recorded pIC50 for `Cc1cc(=O)[nH]c(CNC(=O)c2cccc(C(=O)NCc3cc(=O)[nH]c(C)n3)c2)n1` : < 3.21

// recorded pIC50 for `CC1(C)C(=O)NC(=O)c2ccccc21` : < 3.70

Data credit: PubChem BioAssay AID179
